target: Sodium-dependent serotonin transporter (Rattus norvegicus)
Sequence (P31652 whole entry): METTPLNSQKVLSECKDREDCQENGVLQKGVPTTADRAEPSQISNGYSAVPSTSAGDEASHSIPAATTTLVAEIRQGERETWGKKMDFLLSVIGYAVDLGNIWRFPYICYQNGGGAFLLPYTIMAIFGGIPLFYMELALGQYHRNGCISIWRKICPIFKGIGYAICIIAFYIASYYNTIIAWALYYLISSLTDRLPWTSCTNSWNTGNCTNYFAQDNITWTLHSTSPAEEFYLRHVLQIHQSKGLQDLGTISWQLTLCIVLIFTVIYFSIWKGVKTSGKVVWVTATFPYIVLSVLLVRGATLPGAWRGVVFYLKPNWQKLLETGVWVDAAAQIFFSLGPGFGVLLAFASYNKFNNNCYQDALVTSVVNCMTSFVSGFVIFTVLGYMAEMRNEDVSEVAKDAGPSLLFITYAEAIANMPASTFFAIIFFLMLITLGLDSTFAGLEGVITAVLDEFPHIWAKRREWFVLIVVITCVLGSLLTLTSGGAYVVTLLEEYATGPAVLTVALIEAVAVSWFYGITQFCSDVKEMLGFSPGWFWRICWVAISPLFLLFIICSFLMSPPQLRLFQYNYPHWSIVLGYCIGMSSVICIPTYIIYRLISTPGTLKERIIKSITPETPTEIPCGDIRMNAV
pIC50: −log10 of the molar value.
EXPERIMENTAL_ENDPOINT: pIC50

>>> numeric_result("Fc1ccc(CCNC2CCC(C(c3ccccc3)c3ccccc3)NC2)cc1 (centres undefined)")
5.66
>>> numeric_result("Fc1ccc(CN[C@@H]2CC[C@H](C(c3ccccc3)c3ccccc3)NC2)cc1")
5.45
>>> numeric_result("c1ccc(C(c2ccccc2)[C@H]2CC[C@@H](NCc3cccs3)CN2)cc1")
5.44
>>> numeric_result("COc1ccc(CN[C@@H]2CC[C@H](C(c3ccccc3)c3ccccc3)NC2)cc1")
5.98

----------
Attribute: Selectivity ratio
assay: Ratio of [3H]- DA uptake to DAT binding was determined; format: functional
EXPERIMENTAL_ENDPOINT: Selectivity ratio

>>> result("Fc1ccc(CN[C@H]2CC[C@@H](C(c3ccccc3)c3ccccc3)NC2)cc1")
1.6
>>> result("Fc1ccc(CN[C@@H]2CC[C@H](C(c3ccccc3)c3ccccc3)NC2)cc1")
0.62
>>> result("Fc1ccc(CNC2CCC(C(c3ccccc3)c3ccccc3)NC2)cc1 (racemic)")
1.4
>>> result("Fc1ccc(CN[C@@H]2CC[C@H](C(c3ccccc3)c3ccccc3)NC2)cc1F")
1.2
>>> result("COc1ccc(CN[C@@H]2CC[C@H](C(c3ccccc3)c3ccccc3)NC2)cc1")
0.85

----------
Entries with their measured IC50, system Sodium-dependent dopamine transporter (Rattus norvegicus):
EXPERIMENTAL_ENDPOINT: IC50 (nM)

>>> numeric_result("Oc1ccc(CN[C@@H]2CC[C@H](C(c3ccccc3)c3ccccc3)NC2)cc1")
65.9
>>> numeric_result("c1ccc(C(c2ccccc2)[C@H]2CC[C@@H](NCc3c[nH]c4ccccc34)CN2)cc1")
834
>>> numeric_result("N#Cc1ccc(CN[C@@H]2CC[C@H](C(c3ccccc3)c3ccccc3)NC2)cc1")
109

----------
Entries with their measured log10(IC50), system Norepinephrine transporter (Rattus norvegicus, UniProt Q9WTR4):
EXPERIMENTAL_ENDPOINT: log10(IC50) (log10 of the value in nM)

>>> numeric_result("Oc1ccc(CN[C@@H]2CC[C@H](C(c3ccccc3)c3ccccc3)NC2)cc1")
2.30
>>> numeric_result("COc1ccc(CN[C@@H]2CC[C@H](C(c3ccccc3)c3ccccc3)NC2)cc1")
3.05
>>> numeric_result("N#Cc1ccc(CN[C@@H]2CC[C@H](C(c3ccccc3)c3ccccc3)NC2)cc1")
4.22
>>> numeric_result("c1ccc(C(c2ccccc2)[C@H]2CC[C@@H](NCc3cccs3)CN2)cc1")
3.67
>>> numeric_result("Fc1ccc(CN[C@H]2CC[C@@H](C(c3ccccc3)c3ccccc3)NC2)cc1")
3.15
>>> numeric_result("N#Cc1ccc(CN[C@H]2CC[C@@H](C(c3ccccc3)c3ccccc3)NC2)cc1")
3.22
>>> numeric_result("Fc1ccc(CN[C@@H]2CC[C@H](C(c3ccccc3)c3ccccc3)NC2)cc1")
3.36
>>> numeric_result("c1ccc(C(c2ccccc2)[C@H]2CC[C@@H](NCc3cc4ccccc4[nH]3)CN2)cc1")
3.00
>>> numeric_result("c1ccc(C(c2ccccc2)[C@H]2CC[C@@H](NCc3c[nH]c4ccccc34)CN2)cc1")
3.58
>>> numeric_result("Fc1ccc(CN[C@@H]2CC[C@H](C(c3ccccc3)c3ccccc3)NC2)cc1F")
3.20
>>> numeric_result("c1ccc(C(c2ccccc2)[C@H]2CC[C@@H](NCc3csc4ccccc34)CN2)cc1")
3.02
>>> numeric_result("c1ccc(CN[C@@H]2CC[C@H](C(c3ccccc3)c3ccccc3)NC2)cc1")
2.79
>>> numeric_result("Fc1ccc(CCNC2CCC(C(c3ccccc3)c3ccccc3)NC2)cc1 (stereo not drawn)")
3.24
